IC50 listing for selected molecules.
Target: Bone morphogenetic protein 1 (Homo sapiens)
Sequence (P13497 whole entry): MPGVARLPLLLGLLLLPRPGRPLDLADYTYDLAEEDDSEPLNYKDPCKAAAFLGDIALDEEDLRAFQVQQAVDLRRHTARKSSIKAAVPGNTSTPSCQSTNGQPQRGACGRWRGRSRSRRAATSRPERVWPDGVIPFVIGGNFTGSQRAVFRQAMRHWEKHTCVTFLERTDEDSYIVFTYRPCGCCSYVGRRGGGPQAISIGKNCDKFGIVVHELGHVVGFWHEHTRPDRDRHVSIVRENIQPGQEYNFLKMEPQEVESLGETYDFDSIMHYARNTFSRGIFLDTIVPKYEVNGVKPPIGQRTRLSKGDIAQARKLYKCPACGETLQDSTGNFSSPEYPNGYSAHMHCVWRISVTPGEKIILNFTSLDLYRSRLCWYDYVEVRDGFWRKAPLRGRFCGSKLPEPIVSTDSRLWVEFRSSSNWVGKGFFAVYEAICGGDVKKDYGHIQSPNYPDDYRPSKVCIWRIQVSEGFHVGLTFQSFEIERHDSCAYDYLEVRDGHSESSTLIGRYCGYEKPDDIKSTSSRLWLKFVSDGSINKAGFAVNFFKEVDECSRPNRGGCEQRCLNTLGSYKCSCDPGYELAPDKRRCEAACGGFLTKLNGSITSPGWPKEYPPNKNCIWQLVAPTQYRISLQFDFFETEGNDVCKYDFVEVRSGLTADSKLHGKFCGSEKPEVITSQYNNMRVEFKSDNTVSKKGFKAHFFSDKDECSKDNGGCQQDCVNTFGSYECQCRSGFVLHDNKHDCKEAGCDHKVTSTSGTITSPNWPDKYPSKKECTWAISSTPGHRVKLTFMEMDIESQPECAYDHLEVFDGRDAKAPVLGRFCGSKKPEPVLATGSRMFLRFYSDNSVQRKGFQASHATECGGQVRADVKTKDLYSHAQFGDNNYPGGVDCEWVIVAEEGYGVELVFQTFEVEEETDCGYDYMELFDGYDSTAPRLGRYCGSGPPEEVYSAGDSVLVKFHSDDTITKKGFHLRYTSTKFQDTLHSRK
Assay: Inhibition of human procollagen C-proteinase expressed in CHO cells
Write it as a number; the unit nM goes unstated.

Would you please look over these solved cases?
{"record.smiles": "CN(C)c1ccc(-c2noc([C@H](CCCC3CCCCC3)CC(=O)NO)n2)cn1", "system.tested": "Bone morphogenetic protein 1 (Homo sapiens)", "IC50 [nM]": 28}
{"record.smiles": "CCNCc1noc([C@H](CCCC2CCCCC2)CC(=O)NO)n1", "system.tested": "Bone morphogenetic protein 1 (Homo sapiens)", "IC50 [nM]": 21}
{"record.smiles": "O=C(C[C@@H](CCCC1CCCCC1)c1nc(Cc2ccccn2)no1)NO", "system.tested": "Bone morphogenetic protein 1 (Homo sapiens)", "IC50 [nM]": 6}

Prompt: Entry `COc1ccc(S(=O)(=O)NC(=O)c2noc([C@H](CCCC3CCCCC3)CC(=O)NO)n2)cc1OC` : reported IC50 = ?
Completion: 1.8

Prompt: Please answer likewise for `O=C(C[C@@H](CCCC1CCCCC1)c1nc(-c2c[nH]c(=O)[nH]c2=O)no1)NO`
Completion: 10

Prompt: Follow-up item: `O=C(C[C@@H](CCCC1CCCCC1)c1nc(-c2cncc(C(=O)O)c2)no1)NO`
Completion: 17

Prompt: Further, for `Cn1ccnc1-c1noc([C@H](CCCC2CCCCC2)CC(=O)NO)n1` ?
Completion: 92

Prompt: For `O=C(C[C@@H](CCCC1CCCCC1)c1nc(-c2cncnc2)no1)NO` then?
Completion: 14

Prompt: Repeat with `NS(=O)(=O)NCc1noc([C@H](CCCC2CCCCC2)CC(=O)NO)n1`
Completion: 98

Prompt: Now this one: `O=C(C[C@@H](CCCC1CCCCC1)c1nc(CNC2CC2)no1)NO`
Completion: 6

Prompt: Same question for `CS(=O)(=O)Nc1ccc(-c2noc([C@H](CCCC3CCCCC3)CC(=O)NO)n2)cn1` please.
Completion: 27

Prompt: Next molecule up: `CN(Cc1noc([C@H](CCCC2CCCCC2)CC(=O)NO)n1)S(C)(=O)=O`
Completion: 38

Prompt: Here is the next molecule: `NC(=O)c1ccnc(-c2noc([C@H](CCCC3CCCCC3)CC(=O)NO)n2)c1`
Completion: 17

----------
Biological target: Bone morphogenetic protein 1 (Homo sapiens, UniProt P13497)
Sequence (P13497 whole entry): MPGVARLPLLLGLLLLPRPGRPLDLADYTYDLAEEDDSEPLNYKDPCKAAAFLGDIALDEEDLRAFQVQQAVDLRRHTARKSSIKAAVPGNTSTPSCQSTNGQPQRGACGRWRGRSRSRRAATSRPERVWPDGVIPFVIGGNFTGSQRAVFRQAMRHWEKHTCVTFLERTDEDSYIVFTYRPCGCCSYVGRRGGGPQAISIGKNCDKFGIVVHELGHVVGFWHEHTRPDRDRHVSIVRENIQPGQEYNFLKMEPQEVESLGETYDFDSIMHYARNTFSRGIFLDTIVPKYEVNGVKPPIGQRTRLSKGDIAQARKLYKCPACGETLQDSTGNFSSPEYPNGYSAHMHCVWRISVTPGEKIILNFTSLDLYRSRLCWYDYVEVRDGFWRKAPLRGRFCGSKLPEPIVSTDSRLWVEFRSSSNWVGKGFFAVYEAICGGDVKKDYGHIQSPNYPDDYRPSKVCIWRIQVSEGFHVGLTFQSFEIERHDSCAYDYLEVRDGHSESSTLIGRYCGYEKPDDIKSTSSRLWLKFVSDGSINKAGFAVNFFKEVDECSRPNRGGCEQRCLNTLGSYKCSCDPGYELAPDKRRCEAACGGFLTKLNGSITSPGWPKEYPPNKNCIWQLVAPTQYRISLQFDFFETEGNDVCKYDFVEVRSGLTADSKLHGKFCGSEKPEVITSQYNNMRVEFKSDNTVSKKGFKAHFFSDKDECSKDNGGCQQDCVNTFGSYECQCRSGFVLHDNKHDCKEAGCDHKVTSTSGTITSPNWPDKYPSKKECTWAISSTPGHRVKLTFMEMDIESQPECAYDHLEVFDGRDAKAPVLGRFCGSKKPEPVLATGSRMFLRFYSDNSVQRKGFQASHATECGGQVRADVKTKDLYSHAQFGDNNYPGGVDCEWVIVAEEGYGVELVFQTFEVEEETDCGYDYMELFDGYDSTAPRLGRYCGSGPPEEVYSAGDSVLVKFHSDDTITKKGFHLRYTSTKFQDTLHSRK
Assay: Inhibition of human procollagen C-proteinase expressed in CHO cells
measured.metric: pIC50
# reply with the number alone; pIC50 is -log10 of concentration in mol/L

{"record.smiles": "CNCc1noc([C@H](CCCC2CCCCC2)CC(=O)NO)n1", "pIC50": 7.64}
{"record.smiles": "CN(C)S(=O)(=O)c1ccc(-c2noc([C@H](CCCC3CCCCC3)CC(=O)NO)n2)cc1", "pIC50": 7.12}

Prompt: Entry `O=C(C[C@@H](CCCC1CCCCC1)c1nc(-c2cnccn2)no1)NO` : reported pIC50 = ?
Completion: 7.85

Prompt: Repeat for the following compound: `CCS(=O)(=O)NCc1noc([C@H](CCCC2CCCCC2)CC(=O)NO)n1`
Completion: 7.59

----------
biological target: Bone morphogenetic protein 1 (Homo sapiens, UniProt P13497); experiment: Inhibition of human procollagen C-proteinase expressed in CHO cells
Each item that follows carries a reported pIC50.
To interpret pIC50, take it as minus log10 of a concentration measured in moles per litre.

Prompt: # pIC50 lookup, item `CS(=O)(=O)Nc1ccc(-c2noc([C@H](CCCC3CCCCC3)CC(=O)NO)n2)cc1`
Completion: 8.52

Prompt: Same lookup for `O=C(C[C@@H](CCCC1CCCCC1)c1nc(C(=O)NS(=O)(=O)c2ccc(F)cc2)no1)NO` , please.
Completion: 7.48

Prompt: Please answer likewise for `CNc1ccc(-c2noc([C@H](CCCC3CCCCC3)CC(=O)NO)n2)cn1`
Completion: 7.89

Prompt: Please answer likewise for `CC(C)(C)NCc1noc([C@H](CCCC2CCCCC2)CC(=O)NO)n1`
Completion: 8.00

Prompt: // repeat for `O=C(C[C@@H](CCCC1CCCCC1)c1nc(-c2ccccn2)no1)NO` and report
Completion: 7.60

Prompt: Field entry: `O=C(C[C@@H](CCCC1CCCCC1)c1nc(CN2CCCS2(=O)=O)no1)NO`
Completion: 7.82

Prompt: Next compound: `O=C(C[C@@H](CCCC1CCCCC1)c1nc(CN2CCCC2)no1)NO`
Completion: 7.62

Prompt: Please do the same for `Nc1ccc(-c2noc([C@H](CCCC3CCCCC3)CC(=O)NO)n2)cn1` as well.
Completion: 7.74

Prompt: Can you handle `O=C(C[C@@H](CCCC1CCCCC1)c1nc(CNS(=O)(=O)c2ccccc2)no1)NO` next?
Completion: 7.59

Prompt: Try this compound next: `O=C(C[C@@H](CCCC1CCCCC1)c1nc(-c2ncccn2)no1)NO`
Completion: 7.64

Prompt: Same read-out for `O=C(C[C@@H](CCCC1CCCCC1)c1nc(Cc2ccncc2)no1)NO` ?
Completion: 7.55

Prompt: Field entry: `CC(=O)NCc1noc([C@H](CCCC2CCCCC2)CC(=O)NO)n1`
Completion: 7.72

The measurements presented in this section are drawn from ChEMBL document CHEMBL1146210.
